Catalogue of compounds with associated inhibition at 20 µM
Target: KRas G12D/Q61H double mutant (Homo sapiens (Human), UniProt P01116, G12D/Q61H)
Sequence (P01116-2 other isoform, or with tags, fused parts or gaps G12D/Q61H): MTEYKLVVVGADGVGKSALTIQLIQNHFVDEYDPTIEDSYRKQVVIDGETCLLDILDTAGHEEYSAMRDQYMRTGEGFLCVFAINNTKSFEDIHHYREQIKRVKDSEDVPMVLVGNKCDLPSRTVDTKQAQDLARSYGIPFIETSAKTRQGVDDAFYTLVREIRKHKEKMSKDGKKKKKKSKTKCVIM
Assay: Ras GTP binding domain inhibition assay (labeled GTP)
Settings: 20 μM compound; KRas G12D/Q61H double mutant; read-out: % Inhibition at 20 μM of K-Ras mutant and wild-type protein, KRas G12D Q61H

A selection of reference data follows.
CN(C)S(=O)(=O)c1ccc(CN2CCCCCC2/C=C/c2ccccc2)o1 (stereo not drawn) ... 25 to 50%
CCn1c(SCc2csc(-c3ccc(OC)c(OC)c3)n2)nc2ccccc21 ... 25 to 50%
COc1ccc(-c2oc3ncn(CCCn4ccnc4)c(=N)c3c2-c2ccc(OC)cc2)cc1 ... 25 to 50%
COc1ccc(CCN2CCN(c3ccc(C#N)c(C(F)(F)F)c3)CC2)cc1 ... 25 to 50%
COc1cnc(-c2cnc[nH]2)nc1O [drawing 3516] ... 51 to 75%
CCOC(=O)c1ccc2c(c1)n(Cc1occc1C(=O)OC)c(=O)n2CC ... 1 to 25%
Cc1sc2c(O)nc(-c3ccccn3)nc2c1-c1cccnc1 [drawing 3468] ... 25 to 50%
Nc1nc(O)c2sc(-c3cccc(C(=O)NCc4ncc[nH]4)c3)cc2n1 [drawing 3545] ... 0%

Entry `Cc1cc(C)c(-c2csc(C3CC3)n2)cc1C` : reported inhibition at 20 µM = ?
25 to 50%

Entry Cc1c(Br)sc2c(O)nc(-c3ccccn3)nc12 [drawing 3474] : reported inhibition at 20 µM = ?
25 to 50%

Entry Cc1ccc(C)c(-c2csc(C3CN(Cc4ccccc4)CCO3)n2)c1 (stereo not drawn) : reported inhibition at 20 µM = ?
25 to 50%

Entry `NC(=O)c1cc(-c2csc(N3CCCCC3)n2)ccc1O` : reported inhibition at 20 µM = ?
1 to 25%
